# Subject Of Test: human serum albumin (HSA) (Homo sapiens)
# Construct: purchased Biowest, Nuaillé, France
# Method Summary: Albumin-mediated size exclusion chromatography (AMSEC)
# Type: in vitro ADME
# Setup Conditions: from tR,norm. by column calibration
Listed here are compounds together with their documented MWapp,norm. (normalized apparent molecular weight).
I only need the number, in kDa, no unit after it.

>>> observed_value("O=C(O)CC[C@H](NC(=O)N[C@@H](CCCCNC(=O)[C@H](Cc1ccc2ccccc2c1)NC(=O)[C@H]1CC[C@H](CNC(=O)CN2CCN(CC(=O)O)CCN(CC(=O)O)CCN(CC(=O)O)CC2)CC1)C(=O)O)C(=O)O (177Lu complex, metal not drawn) [PSMA-617, reference compound]")
9.4
>>> observed_value("CC(C)(C)[Si](F)(c1ccc(C(=O)NC[C@H](NC(=O)CC[C@H](C(=O)O)N2CCN(CC(=O)[O-])CCN(CC(=O)[O-])CCN(CC(=O)[O-])CC2)C(=O)N[C@H](CCCCNC(=O)CCC(=O)NCCC[C@@H](NC(=O)CC[C@H](NC(=O)N[C@@H](CCC(=O)O)C(=O)O)C(=O)O)C(=O)O)C(=O)O)cc1)C(C)(C)C.[177Lu+3] [rhPSMA-7.2]")
21.7

Please look at the following compound next.
Exercise: Recorded MWapp,norm. (normalized apparent molecular weight) of CC(C)(C)[Si](F)(c1ccc(C(=O)NC[C@H](NC(=O)CN2CCN(CC(=O)[O-])CCN(CC(=O)[O-])CCN(CC(=O)[O-])CC2)C(=O)N[C@H](CCCCNC(=O)CCC(=O)NCCC[C@@H](NC(=O)CC[C@H](NC(=O)N[C@@H](CCC(=O)O)C(=O)O)C(=O)O)C(=O)O)C(=O)O)cc1)C(C)(C)C.[177Lu+3] [rhPSMA-10.2] , please.
Key: 13.2

----------
# Subject Of Test: human serum albumin (HSA) (Homo sapiens, UniProt P02768)
# Construct: purchased Biowest, Nuaillé, France
# Sequence (P02768 25-609): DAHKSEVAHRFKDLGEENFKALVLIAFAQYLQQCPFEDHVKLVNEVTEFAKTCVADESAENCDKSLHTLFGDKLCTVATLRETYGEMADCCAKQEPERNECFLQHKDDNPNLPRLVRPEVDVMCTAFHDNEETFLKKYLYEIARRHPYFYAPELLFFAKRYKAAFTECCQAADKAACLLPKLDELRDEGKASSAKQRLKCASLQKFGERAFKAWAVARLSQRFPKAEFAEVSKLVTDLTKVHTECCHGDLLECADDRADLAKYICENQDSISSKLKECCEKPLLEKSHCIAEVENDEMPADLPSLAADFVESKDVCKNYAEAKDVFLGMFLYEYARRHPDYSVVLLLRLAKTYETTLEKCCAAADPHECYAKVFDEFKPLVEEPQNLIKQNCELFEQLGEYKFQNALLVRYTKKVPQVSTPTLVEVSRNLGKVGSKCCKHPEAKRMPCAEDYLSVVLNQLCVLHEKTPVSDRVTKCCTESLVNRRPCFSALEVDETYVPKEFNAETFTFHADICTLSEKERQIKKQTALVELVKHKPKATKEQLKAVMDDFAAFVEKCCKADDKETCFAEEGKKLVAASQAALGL
# Method Summary: Albumin-mediated size exclusion chromatography (AMSEC)
# Type: in vitro ADME
# Setup Conditions: from tR,norm. by column calibration
Listed here are compounds together with their documented MWapp,norm. (normalized apparent molecular weight).
I only need the number, in kDa, no unit after it.

# annotated cases, reported MWapp,norm. (normalized apparent molecular weight) shown
>>> observed_value("O=C(O)CC[C@H](NC(=O)N[C@@H](CCCCNC(=O)CCCCCCC(=O)NCCCC[C@@H](NC(=O)[C@@H](Cc1ccccc1)NC(=O)[C@@H](Cc1ccc(O)c(I)c1)NC(=O)CCC(C(=O)O)N1CCN(CC(=O)O)CCN(CC(=O)O)CCN(CC(=O)O)CC1)C(=O)O)C(=O)O)C(=O)O (stereo partly drawn) (177Lu complex, metal not drawn) [PSMA-I&T, reference compound]")
1.9
>>> observed_value("CC(C)(C)[Si](F)(c1ccc(C(=O)NC[C@@H](NC(=O)CN2CCN(CC(=O)[O-])CCN(CC(=O)[O-])CCN(CC(=O)[O-])CC2)C(=O)N[C@H](CCCCNC(=O)CCC(=O)NCCC[C@@H](NC(=O)CC[C@H](NC(=O)N[C@@H](CCC(=O)O)C(=O)O)C(=O)O)C(=O)O)C(=O)O)cc1)C(C)(C)C.[177Lu+3] [rhPSMA-10.1]")
17.2

Exercise: Recorded MWapp,norm. (normalized apparent molecular weight) of CC(C)(C)[Si](F)(c1ccc(C(=O)NC[C@H](NC(=O)CC[C@@H](C(=O)O)N2CCN(CC(=O)[O-])CCN(CC(=O)[O-])CCN(CC(=O)[O-])CC2)C(=O)N[C@H](CCCCNC(=O)CCC(=O)NCCC[C@@H](NC(=O)CC[C@H](NC(=O)N[C@@H](CCC(=O)O)C(=O)O)C(=O)O)C(=O)O)C(=O)O)cc1)C(C)(C)C.[177Lu+3] [rhPSMA-7.4] , please.
Key: 26.0

----------
# Subject Of Test: human serum albumin (HSA) (Homo sapiens, UniProt P02768)
# Construct: purchased Biowest, Nuaillé, France
# Method Summary: Albumin-mediated size exclusion chromatography (AMSEC)
# Assay type: in vitro ADME
# Setup Conditions: normalized with tR,blank, tR,HSA and tR,acetone; Equation (5)
Listed here are compounds together with their documented tR,norm. (normalized retention time).

>>> observed_value("CC(C)(C)[Si](F)(c1ccc(C(=O)NC[C@@H](NC(=O)CC[C@@H](C(=O)O)N2CCN(CC(=O)[O-])CCN(CC(=O)[O-])CCN(CC(=O)[O-])CC2)C(=O)N[C@H](CCCCNC(=O)CCC(=O)NCCC[C@@H](NC(=O)CC[C@H](NC(=O)N[C@@H](CCC(=O)O)C(=O)O)C(=O)O)C(=O)O)C(=O)O)cc1)C(C)(C)C.[177Lu+3]")
"16.125 ^1 min"

Please look at the following compound next.
Exercise: Recorded tR,norm. (normalized retention time) of `CC(C)(C)[Si](F)(c1ccc(C(=O)NC[C@H](NC(=O)CN2CCN(CC(=O)[O-])CCN(CC(=O)[O-])CCN(CC(=O)[O-])CC2)C(=O)N[C@H](CCCCNC(=O)CCC(=O)NCCC[C@@H](NC(=O)CC[C@H](NC(=O)N[C@@H](CCC(=O)O)C(=O)O)C(=O)O)C(=O)O)C(=O)O)cc1)C(C)(C)C.[177Lu+3]` , please.
Key: 17.736 min

----------
# Method Summary: Calculated glomerular sieving coefficients (GSCcalc) from MWapp,norm.
# Setup Conditions: from MWapp,norm. via sigmoidal fit of MW vs GSC of 12 human plasma proteins
Property Name: GSCcalc (calculated glomerular sieving coefficient)
Note: the reply should be a number with no unit written.

# annotated cases, reported GSCcalc (calculated glomerular sieving coefficient) shown
>>> observed_value("CC(C)(C)[Si](F)(c1ccc(C(=O)NC[C@@H](NC(=O)CN2CCN(CC(=O)[O-])CCN(CC(=O)[O-])CCN(CC(=O)[O-])CC2)C(=O)N[C@H](CCCCNC(=O)CCC(=O)NCCC[C@@H](NC(=O)CC[C@H](NC(=O)N[C@@H](CCC(=O)O)C(=O)O)C(=O)O)C(=O)O)C(=O)O)cc1)C(C)(C)C.[177Lu+3]")
0.644
>>> observed_value("CC(C)(C)[Si](F)(c1ccc(C(=O)NC[C@H](NC(=O)CC[C@@H](C(=O)O)N2CCN(CC(=O)[O-])CCN(CC(=O)[O-])CCN(CC(=O)[O-])CC2)C(=O)N[C@H](CCCCNC(=O)CCC(=O)NCCC[C@@H](NC(=O)CC[C@H](NC(=O)N[C@@H](CCC(=O)O)C(=O)O)C(=O)O)C(=O)O)C(=O)O)cc1)C(C)(C)C.[177Lu+3]")
0.138

Exercise: Recorded GSCcalc (calculated glomerular sieving coefficient) of O=C(O)CC[C@H](NC(=O)N[C@@H](CCCCNC(=O)[C@H](Cc1ccc2ccccc2c1)NC(=O)[C@H]1CC[C@H](CNC(=O)CN2CCN(CC(=O)O)CCN(CC(=O)O)CCN(CC(=O)O)CC2)CC1)C(=O)O)C(=O)O (177Lu complex, metal not drawn) [PSMA-617, reference compound] , please.
Key: 0.942
